Tested on: Apolipoprotein B (Apo B) (NM_000384)
Test: Apo B gene expression in Hep3B cells after Lipofectamine 2000 transfection, real-time PCR SYBR green (Example 50)
Format: cell-based, Homo Sapiens
Settings: Complete IC50 data evaluated by SYBR green; Apo B mRNA, Hep3B cells, 24 hours; 3 biological replicates; read-out: IC50
Description: After checking OD all oligonucleotide candidate molecules were diluted to a starting concentration of 20 μM. Multidose forward transfection experiment was setup in 96-well plates using Hep3B cells (ATCC®, Cat. HB-8064™) using Lipofectamine 2000 (Life Technologies, Cat. 11668-019) transfection reagent. […] Gene expression was measured by quantitative PCR using a LightCycler® 480 SYBR Green I Master (Roche, Cat. 04707516001) on LightCycler 480 Real-Time PCR instrument. […]
Strand notation (5' to 3'): a small letter for the sugar, then the base; units joined by * are phosphorothioate-linked, units joined directly phosphodiester-linked; [ ] holds rarer units or linkages, { } end groups; capitals alone tell only the bases. [Rp] = phosphorothioate linkage, Rp; [Sp] = phosphorothioate linkage, Sp; d = 2'-deoxy (DNA)
property: IC50
Answer with the value and then the unit.

{"columns": ["substance", "data value"],
 "data": [
  ["(Rp, Rp, Rp, Sp, Sp, Sp, Sp, Sp, Sp, Sp, Sp, Sp, Sp, Sp, Sp, Sp, Rp, Rp, Rp)-d[GsCsCsTsCsAsGsTsCsTsGsCsTsTsCsGsCsAsCsC] (DNA GCCTCAGTCTGCTTCGCACC; DNA, linkages [Rp]3 [Sp]13 [Rp]3 (s phosphorothioate, o phosphodiester), methylation of C not given here) [Oligonucleotide 110]", "7.44 nM"]
]}

// each substance listed below needs its IC50
1. (Sp, Sp, Sp, Sp, Sp, Rp, Rp, Rp, Rp, Rp, Rp, Rp, Rp, Rp, Sp, Sp, Sp, Sp, Sp)-d[GsCsCsTsCsAsGsTsCsTsGsCsTsTsCsGsCsAsCsC] (DNA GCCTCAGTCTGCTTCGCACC; DNA, linkages [Sp]5 [Rp]9 [Sp]5 (s phosphorothioate, o phosphodiester), methylation of C not given here) [Oligonucleotide 104]
2. (Rp, Sp, Rp, Rp, Sp, Rp, Rp, Sp, Rp, Rp, Sp, Rp, Rp, Sp, Rp, Rp, Sp, Rp, Rp)d[GsCsCsTsCsAsGsTsCsTsGsCsTsTsCsGsCsAsCsC] (DNA dG[Rp]dC[Sp]dC[Rp]dT[Rp]dC[Sp]dA[Rp]dG[Rp]dT[Sp]dC[Rp]dT[Rp]dG[Sp]dC[Rp]dT[Rp]dT[Sp]dC[Rp]dG[Rp]dC[Sp]dA[Rp]dC[Rp]dC) [Oligonucleotide 116]

Marked response:
4.29 nM
1.92 nM

---

I'd be grateful if you could share measured IC50 for these entries.
System: Apolipoprotein B (Apo B) (NM_000384)
Assay: Apo B gene expression in Hep3B cells after Lipofectamine 2000 transfection, real-time PCR SYBR green (Example 50)
Type: cell-based, Homo Sapiens
Details: Apo B mRNA, Hep3B cells, 24 hours after transfection; read-out: IC50 (nM) (rounded up to single digit)
Description: After checking OD all oligonucleotide candidate molecules were diluted to a starting concentration of 20 μM. Multidose forward transfection experiment was setup in 96-well plates using Hep3B cells (ATCC®, Cat. HB-8064™) using Lipofectamine 2000 (Life Technologies, Cat. 11668-019) transfection reagent. […] Gene expression was measured by quantitative PCR using a LightCycler® 480 SYBR Green I Master (Roche, Cat. 04707516001) on LightCycler 480 Real-Time PCR instrument. […]
Strand notation (5' to 3'): a small letter for the sugar, then the base; units joined by * are phosphorothioate-linked, units joined directly phosphodiester-linked; [ ] holds rarer units or linkages, { } end groups; capitals alone tell only the bases. [Rp] = phosphorothioate linkage, Rp; [Sp] = phosphorothioate linkage, Sp; d = 2'-deoxy (DNA)
Numbers only, in nM.

Use the examples below as a reference point.
{"columns": ["substance", "measurement target", "data value"],
 "data": [
  ["(Rp, Sp, Sp, Sp, Sp, Sp, Sp, Sp, Sp, Sp, Sp, Sp, Sp, Sp, Sp, Sp, Sp, Sp, Rp)-d[GsCsCsTsCsAsGsTsCsTsGsCsTsTsCsGsCsAsCsC] (DNA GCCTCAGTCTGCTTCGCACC; DNA, linkages [Rp]1 [Sp]17 [Rp]1 (s phosphorothioate, o phosphodiester), methylation of C not given here) [Oligonucleotide 106]", "Apolipoprotein B (Apo B) (NM_000384)", 4],
  ["(Rp, Sp, Rp, Rp, Sp, Rp, Rp, Sp, Rp, Rp, Sp, Rp, Rp, Sp, Rp, Rp, Sp, Rp, Rp)d[GsCsCsTsCsAsGsTsCsTsGsCsTsTsCsGsCsAsCsC] (DNA dG[Rp]dC[Sp]dC[Rp]dT[Rp]dC[Sp]dA[Rp]dG[Rp]dT[Sp]dC[Rp]dT[Rp]dG[Sp]dC[Rp]dT[Rp]dT[Sp]dC[Rp]dG[Rp]dC[Sp]dA[Rp]dC[Rp]dC) [Oligonucleotide 116]", "Apolipoprotein B (Apo B) (NM_000384)", 2],
  ["(Rp, Rp, Sp, Rp, Rp, Sp, Rp, Rp, Sp, Rp, Rp, Sp, Rp, Rp, Sp, Rp, Rp, Sp, Rp)-d[GsCsCsTsCsAsGsTsCsTsGsCsTsTsCsGsCsAsCsC] (DNA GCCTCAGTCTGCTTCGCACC; DNA, linkages [Rp][Rp][Sp][Rp][Rp][Sp][Rp][Rp][Sp][Rp][Rp][Sp][Rp][Rp][Sp][Rp][Rp][Sp][Rp] (s phosphorothioate, o phosphodiester), methylation of C not given here) [Oligonucleotide 114]", "Apolipoprotein B (Apo B) (NM_000384)", 5],
  ["(Rp, Rp, Rp, Sp, Sp, Sp, Sp, Sp, Sp, Sp, Sp, Sp, Sp, Sp, Sp, Sp, Rp, Rp, Rp)-d[GsCsCsTsCsAsGsTsCsTsGsCsTsTsCsGsCsAsCsC] (DNA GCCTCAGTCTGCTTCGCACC; DNA, linkages [Rp]3 [Sp]13 [Rp]3 (s phosphorothioate, o phosphodiester), methylation of C not given here) [Oligonucleotide 110]", "Apolipoprotein B (Apo B) (NM_000384)", 7]
]}

Exam item: Please look at this substance and report its IC50: (Sp, Rp, Rp, Rp, Rp, Rp, Rp, Rp, Rp, Rp, Rp, Rp, Rp, Rp, Rp, Rp, Rp, Rp, Sp)-d[GsCsCsTsCsAsGsTsCsTsGsCsTsTsCsGsCsAsCsC] (DNA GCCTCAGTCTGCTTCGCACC; DNA, linkages [Sp]1 [Rp]17 [Sp]1 (s phosphorothioate, o phosphodiester), methylation of C not given here) [Oligonucleotide 105]
Marked response: 3

---

Test system: Apolipoprotein B (Apo B) (NM_000384)
Test: Apo B gene expression in Hep3B cells after Lipofectamine 2000 transfection, real-time PCR SYBR green (Example 50)
Assay type: cell-based, Homo Sapiens
Settings: Apo B mRNA, Hep3B cells, 24 hours after transfection; read-out: IC50 (nM) (rounded up to single digit)
Strand notation (5' to 3'): a small letter for the sugar, then the base; units joined by * are phosphorothioate-linked, units joined directly phosphodiester-linked; [ ] holds rarer units or linkages, { } end groups; capitals alone tell only the bases. [Rp] = phosphorothioate linkage, Rp; [Sp] = phosphorothioate linkage, Sp; e = 2'-O-(2-methoxyethyl) (MOE); [5mC] = 5-methylcytosine; d = 2'-deoxy (DNA)
property: IC50 (nM)
Give bare numbers, in nM.

{"columns": ["substance", "IC50 (nM)"],
 "data": [
  ["(Rp, Rp, Rp, Rp, Rp, Sp, Sp, Sp, Sp, Sp, Sp, Sp, Sp, Sp, Rp, Rp, Rp, Rp, Rp)-d[GsCsCsTsCsAsGsTsCsTsGsCsTsTsCsGsCsAsCsC] (DNA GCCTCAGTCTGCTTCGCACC; DNA, linkages [Rp]5 [Sp]9 [Rp]5 (s phosphorothioate, o phosphodiester), methylation of C not given here) [Oligonucleotide 103]", 6],
  ["(Rp, Sp, Rp, Sp, Rp, Sp, Rp, Sp, Rp, Sp, Rp, Sp, Rp, Sp, Rp, Sp, Rp, Sp, Rp)-d[GsCsCsTsCsAsGsTsCsTsGsCsTsTsCsGsCsAsCsC] (DNA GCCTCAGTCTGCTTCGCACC; DNA, linkages [Rp][Sp][Rp][Sp][Rp][Sp][Rp][Sp][Rp][Sp][Rp][Sp][Rp][Sp][Rp][Sp][Rp][Sp][Rp] (s phosphorothioate, o phosphodiester), methylation of C not given here) [Oligonucleotide 107]", 4],
  ["(Sp, Sp, Sp, Sp, Sp, Rp, Rp, Rp, Rp, Rp, Rp, Rp, Rp, Rp, Sp, Sp, Sp, Sp, Sp)-d[GsCsCsTsCsAsGsTsCsTsGsCsTsTsCsGsCsAsCsC] (DNA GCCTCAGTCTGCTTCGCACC; DNA, linkages [Sp]5 [Rp]9 [Sp]5 (s phosphorothioate, o phosphodiester), methylation of C not given here) [Oligonucleotide 104]", 4]
]}

// each substance listed below needs its IC50
1. (Sp, Rp, Sp, Rp, Sp, Rp, Sp, Rp, Sp, Rp, Sp, Rp, Sp, Rp, Sp, Rp, Sp, Rp, Sp)-d[GsCsCsTsCsAsGsTsCsTsGsCsTsTsCsGsCsAsCsC] (DNA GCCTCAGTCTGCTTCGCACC; DNA, linkages [Sp][Rp][Sp][Rp][Sp][Rp][Sp][Rp][Sp][Rp][Sp][Rp][Sp][Rp][Sp][Rp][Sp][Rp][Sp] (s phosphorothioate, o phosphodiester), methylation of C not given here) [Oligonucleotide 108]
2. Mipomersen (DNA eG*e[5mC]*e[5mC]*eT*e[5mC]*dA*dG*dT*d[5mC]*dT*dG*d[5mC]*dT*dT*d[5mC]*eG*e[5mC]*eA*e[5mC]*e[5mC]) [Oligonucleotide 120, "Mipomersen, which is a stereorandom oligonucleotide mixture (Oligonucleotides 104, 105 ... compared to 120)", reference compound]
3. (Sp, Sp, Sp, Rp, Rp, Rp, Rp, Rp, Rp, Rp, Rp, Rp, Rp, Rp, Rp, Rp, Sp, S, Sp)d[GsCsCsTsCsAsGsTsCsTsGsCsTsTsCsGsCsAsCsC] (DNA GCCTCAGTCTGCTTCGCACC; DNA, linkages [Sp]3 [Rp]13 [Sp]3 (s phosphorothioate, o phosphodiester), methylation of C not given here) [Oligonucleotide 109]

Marked response:
1: 3; 2: 4; 3: 2
